- ASSAY_EXPLANATION: chemical genetic growth profiling, strain panel (AID 1159580);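 further: tested at 20 µM; growth read once vehicle control cultures reached saturation at 30 °C; 1 = growth at the plate median or of vehicle wells; lower values mean less growth of the strain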
- CONDITION_PARAMETERS: S. cerevisiae deletion strains, growth OD, locus YCR088W, strain abp1, hits give low values
The whole screen tested about 5,500 compounds, of which about 2,000 (36%) were called active. About 18% were inconclusive and are not listed. The list shows a part of the results.
Consider the following compounds; for each one, report its normalized growth.
Just the number, please.

Problem: // fetch normalized growth given entry COc1cc(NC(C)CCCN)c2ncccc2c1 (stereo not given)
Solution: 1

Problem: // fetch normalized growth given entry "CC(=O)OC(C)(C)[C@@H]1Cc2cc3ccc(=O)oc3cc2O1"
Solution: 0.982

Problem: // fetch normalized growth given entry NCC1CCC(C(=O)O)CC1 (stereo not given)
Solution: 0.989

Problem: // fetch normalized growth given entry CC(=O)OCC(=O)[C@@]1(O)CCC2C3CCC4=CC(=O)CC[C@]4(C)C3C(=O)C[C@@]21C (stereo not given in full)
Solution: 0.98

Problem: // fetch normalized growth given entry "CC1=C(/C=C/C(C)=C/C=C/C(C)=C/C=C/C=C(C)/C=C/C=C(C)/C=C/C(=O)[C@]2(C)C[C@@H](O)CC2(C)C)C(C)(C)C[C@H](O)C1"
Solution: 1.02

Problem: // fetch normalized growth given entry C=C1C2CC[C@H]3[C@]4(C)C[C@H](OC5OC(CO)C(OS(=O)(=O)O)C(OS(=O)(=O)O)C5OC(=O)CC(C)C)C[C@@H](C(=O)O)[C@H]4CC[C@]3(C2)[C@H]1O (stereo not given in full)
Solution: 1.01

Problem: // fetch normalized growth given entry "Cc1cc(O)c(C=O)c(O)c1C(=O)O"
Solution: 1.01

Problem: // fetch normalized growth given entry "COc1ccc2cc([C@H](C)C(=O)O)ccc2c1"
Solution: 0.972

Problem: // fetch normalized growth given entry COc1ccc(OC)c(C(O)C(C)N)c1 (stereo not given)
Solution: 0.998

Problem: // fetch normalized growth given entry COCCc1ccc(OCC(O)CNC(C)C)cc1 (stereo not given)
Solution: 1

Problem: // fetch normalized growth given entry "COc1ccc2c(C)cc(=O)oc2c1"
Solution: 0.979

Problem: // fetch normalized growth given entry "CC(C)OC(=O)C(C)(C)Oc1ccc(C(=O)c2ccc(Cl)cc2)cc1"
Solution: 0.977

Problem: // fetch normalized growth given entry "COc1cc2c(cc1OC)[C@@H]1C(=O)c3ccc(O)c(CC=C(C)C)c3O[C@@H]1CO2"
Solution: 1

Problem: // fetch normalized growth given entry CC(=O)O[C@@H]1C[C@@]2(C)C(CC[C@@H]2C(C)=O)C2CCC3=CC(=O)CC[C@]3(C)C21 (stereo not given in full)
Solution: 1.02

Problem: // fetch normalized growth given entry "CCCCNc1cc(C(=O)O)cc(S(N)(=O)=O)c1Oc1ccccc1"
Solution: 1.01

Problem: // fetch normalized growth given entry CC(=O)OCC(=O)[C@H]1CCC2C3CCC4=CC(=O)CC[C@]4(C)C3CC[C@@]21C (stereo not given in full)
Solution: 0.972

Problem: // fetch normalized growth given entry "Cc1[nH]c(C)c(Cl)c(=O)c1Cl"
Solution: 1

Problem: // fetch normalized growth given entry CC(C(=O)O)c1cccc(C(=O)c2ccccc2)c1 (stereo not given)
Solution: 0.989

Problem: // fetch normalized growth given entry "O=C(O)c1cc2ccccc2c(Cc2c(O)c(C(=O)O)cc3ccccc23)c1O"
Solution: 1.01

Problem: // fetch normalized growth given entry CC(=O)[C@H]1CCC2C3CCC4=CC(=O)CC[C@]4(C)C3CC[C@@]21C (stereo not given in full)
Solution: 0.99

Problem: // fetch normalized growth given entry "CC1=C(/C=C/C(C)=C/C=C/C(C)=C/C=C/C=C(C)/C=C/C=C(C)/C=C/C2=C(C)C(=O)CCC2(C)C)C(C)(C)CCC1=O"
Solution: 0.994

Problem: // fetch normalized growth given entry ClC1=C(Cl)C2(Cl)C3C4C=CC(C4)C3C1(Cl)C2(Cl)Cl (stereo not given)
Solution: 0.991

Problem: // fetch normalized growth given entry CN1CCc2cc3c(cc2[C@H]1C1OC(=O)c2c1ccc1c2OCO1)OCO3 (stereo not given in full)
Solution: 0.98

Problem: // fetch normalized growth given entry CCOC(=O)C(Cc1ccc(O)cc1)NC(C)=O (stereo not given)
Solution: 1.01

Problem: // fetch normalized growth given entry "CC1(C)OC(=O)NC1=O"
Solution: 0.994

Problem: // fetch normalized growth given entry ClC1=C(Cl)C2(Cl)C3C(Cl)C=CC3C1(Cl)C2(Cl)Cl (stereo not given)
Solution: 0.998

Problem: // fetch normalized growth given entry "CC(C)(O)[C@@H]1[C@H]2OC(=O)[C@@H]1[C@]1(O)C[C@H]3O[C@]34C(=O)O[C@H]2[C@]14C"
Solution: 1

Problem: // fetch normalized growth given entry "CS(=O)(=O)c1ccc(C2=C(c3ccccc3)C(=O)OC2)cc1"
Solution: 0.985

Problem: // fetch normalized growth given entry "S=c1nc[nH]c2nc[nH]c12"
Solution: 0.977

Problem: // fetch normalized growth given entry "COc1cc(O)c(C(=O)/C=C/c2ccc(O)c(OC)c2)c(OC)c1"
Solution: 0.976

Problem: // fetch normalized growth given entry CC(C(=O)O)c1ccc(-c2ccccc2)c(F)c1 (stereo not given)
Solution: 0.978

Problem: // fetch normalized growth given entry CC(=O)NC1SCCC1=O (stereo not given)
Solution: 0.984

Problem: // fetch normalized growth given entry C[C@H]1CC2C([C@@H](O)C[C@@]3(C)C2CC[C@]3(O)C(=O)CO)[C@@]2(C)C=CC(=O)C=C12 (stereo not given in full)
Solution: 1

Problem: // fetch normalized growth given entry "COc1cc(O)c(C(=O)/C=C/c2ccc(OC)c(O)c2)c(OC)c1"
Solution: 0.995

Problem: // fetch normalized growth given entry CC1CC2C3CCC4=CC(=O)C=C[C@]4(C)[C@@]3(F)[C@@H](O)C[C@]2(C)[C@@]1(O)C(=O)CO (stereo not given in full)
Solution: 0.996

###

- ASSAY_EXPLANATION: chemical genetic growth profiling, strain panel (AID 1159580);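 further: tested at 20 µM; growth read once vehicle control cultures reached saturation at 30 °C; 1 = growth at the plate median or of vehicle wells; lower values mean less growth of the strain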
- CONDITION_PARAMETERS: S. cerevisiae deletion strains, growth OD, locus YLR418C, strain cdc73, hits give low values
Screen size: about 5,500 compounds; about 2,000 (36%) were called active. About 18% were inconclusive and are not listed. This is one part of the list.
REPORTED_METRIC: normalized growth
Just the number, please.

Problem: // fetch normalized growth given entry "CN1CCC(=C2c3ccccc3Sc3ccccc32)CC1"
Solution: 0.874

Problem: // fetch normalized growth given entry "COc1ccc2c(c1)OCc1c-2oc2cc(OC)ccc12"
Solution: 0.901

Problem: // fetch normalized growth given entry "CS(=O)(=O)c1ccc(C2=C(c3ccccc3)C(=O)OC2)cc1"
Solution: 0.987

Problem: // fetch normalized growth given entry CC(Oc1ccccc1)C(=O)N[C@@H]1C(=O)N2[C@@H]1SC(C)(C)[C@@H]2C(=O)O (stereo partly specified)
Solution: 1.04

Problem: // fetch normalized growth given entry "CNCCc1ccccn1"
Solution: 1.03

Problem: // fetch normalized growth given entry CC1=C(CC(=O)O)c2cc(F)ccc2/C1=C\c1ccc(S(C)=O)cc1 (stereo unspecified)
Solution: 1.02

###

Consider the following molecules; for each one, report its normalized growth.
- ASSAY_EXPLANATION: chemical genetic growth profiling, strain panel (AID 1159580);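 further: tested at 20 µM; growth read once vehicle control cultures reached saturation at 30 °C; 1 = growth at the plate median or of vehicle wells; lower values mean less growth of the strain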
- CONDITION_PARAMETERS: S. cerevisiae deletion strains, growth OD, locus YPR141C, strain kar3, hits give low values
Among all 5,500 compounds or so, about 2,000 (36%) were called active. Inconclusive results (about 18%) are left out. Some of the results follow.
Just the number, please.

Problem: // fetch normalized growth given entry "COc1ccc2c(c1)OCc1c-2oc2cc(OC)ccc12"
Solution: 1.03

Problem: // fetch normalized growth given entry C=Cc1c2[nH]c(c1C)C=c1[nH]c(c(C)c1C=C)=CC1N=C(C=c3[nH]c(c(C)c3CCC(=O)O)=C2)C(CCC(=O)O)=C1C (centres undefined)
Solution: 1.01

Problem: // fetch normalized growth given entry "C[N+](C)(C)CCOC(N)=O"
Solution: 0.973

Problem: // fetch normalized growth given entry CC1=C(C(C)O)C2=NC1C=c1[nH]c(c(C)c1C(C)O)=Cc1[nH]c(c(CCC(=O)O)c1C)C=c1[nH]c(c(C)c1CCC(=O)O)=C2 (centres undefined)
Solution: 1.05

###

- ASSAY_EXPLANATION: chemical genetic growth profiling, strain panel (AID 1159580);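 further: tested at 20 µM; growth read once vehicle control cultures reached saturation at 30 °C; 1 = growth at the plate median or of vehicle wells; lower values mean less growth of the strain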
- CONDITION_PARAMETERS: S. cerevisiae deletion strains, growth OD, locus YBR171W, strain sec66, hits give low values
About 2,000 (36%) of roughly 5,500 compounds were called active. Another 18% or so got no clear call; they are omitted. Some of the results follow.
REPORTED_METRIC: normalized growth

Problem: // fetch normalized growth given entry "COc1ccc2c(c1OC)C(=O)O[C@@H]2[C@H]1c2cc3c(cc2CCN1C)OCO3"
Solution: 1 (inactive)

Problem: // fetch normalized growth given entry "CC(=O)O[C@H]1[C@@H]2[C@@H](OC(=O)Cc3ccccc3)[C@@H](C)C[C@]2(OC(C)=O)C(=O)/C(C)=C/[C@H]2[C@H](CC[C@@]13CO3)C2(C)C"
Solution: 0.976 (inactive)

Problem: // fetch normalized growth given entry CC(=O)O[C@@H]1C[C@@]2(C)C(CC[C@@H]2C(C)=O)C2CCC3=CC(=O)CC[C@]3(C)C21 (some centres undefined)
Solution: 0.964 (inactive)

Problem: // fetch normalized growth given entry CC1=C(C(C)O)C2=NC1C=c1[nH]c(c(C)c1C(C)O)=Cc1[nH]c(c(CCC(=O)O)c1C)C=c1[nH]c(c(C)c1CCC(=O)O)=C2 (centres undefined)
Solution: 0.994 (inactive)
